Assay: chemical genetic growth profiling, strain panel (AID 1159580);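 also: tested at 20 µM; growth read once vehicle control cultures reached saturation at 30 °C; 1 = growth at the plate median or of vehicle wells; lower values mean less growth of the strain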
Settings: S. cerevisiae deletion strains, growth OD, locus YMR001C, strain CDC5, stronger effect = lower value
The campaign covered roughly 5,500 compounds. About 2,000 (36%) were called active. Not shown: some 18% with an inconclusive outcome. Some of the results follow.
property: normalized growth

compound-string	measurement
Clc1ccc(-c2noc(CSC3=NCCN3)n2)cc1	0.987
COc1cc(C(=O)Oc2c(Cl)cc(Cl)cc2C=Nc2ccc([N+](=O)[O-])cc2C#N)cc(OC)c1OC	0.98
COc1cc(C(=O)Oc2c(Cl)cc(Cl)cc2C=Nc2cccc(C(F)(F)F)c2)cc(OC)c1OC	0.975
CSc1c(C#N)c(-c2ccc(Cl)cc2)nn1C(=O)c1ccccc1Cl	0.957

---

Experiment: chemical genetic growth profiling, strain panel (AID 1159580);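 also: tested at 20 µM; growth read once vehicle control cultures reached saturation at 30 °C; 1 = growth at the plate median or of vehicle wells; lower values mean less growth of the strain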
Details: S. cerevisiae deletion strains, growth OD, locus YPL256C, strain CLN2
Out of some 5,500 compounds screened, about 2,000 (36%) were called active. Another 18% or so got no clear call; they are omitted. Cut-off read from the data, not from the text of the source: active = normalized growth mostly below about 0.91 (no sharp cut-off); inconclusive = no clear call, values can overlap the other calls; inactive = mostly above about 0.92. The list shows a part of the results.
Outcomes: active, inactive

molecule	class-assignment
COc1ccc(CN(CCN(C)C)c2ncccn2)cc1	inactive
O=C(Nc1cccc(C(F)(F)F)c1)Oc1ccc(F)cc1Cl	active
Cc1nc(C(F)(F)F)c(C(=O)O/N=C(/N)c2ccc(Cl)cc2)s1	active
O=C(O)CCCCCCCCCCCCC1C=CCC1 (stereo not drawn)	inactive
CCCC1c2ccsc2CCN1C(=S)Nc1ccc(Cl)cc1Cl (stereo not drawn)	inactive
COc1ccccc1OCC(O)CN1CCN(CC(=O)Nc2c(C)cccc2C)CC1 (stereo not drawn)	inactive
C[C@@H]1C[C@@H]([C@H](O)CC2CC(=O)NC(=O)C2)C(=O)[C@@H](C)C1	active
NC(=O)c1cc[n+](CC2=C(C(=O)O)N3C(=O)C(NC(=O)C(c4ccccc4)S(=O)(=O)[O-])C3SC2)cc1 (stereo not drawn)	inactive

---

Assay: chemical genetic growth profiling, strain panel (AID 1159580);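 also: tested at 20 µM; growth read once vehicle control cultures reached saturation at 30 °C; 1 = growth at the plate median or of vehicle wells; lower values mean less growth of the strain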
Details: S. cerevisiae deletion strains, growth OD, locus YBR229C, strain ROT2, stronger effect = lower value
Screen size: about 5,500 compounds; about 2,000 (36%) were called active. About 18% were inconclusive and are not listed. The list shows a part of the results.
# maps each entry to its normalized growth

molecule	normalized growth
COc1ccc(/C=C/c2cc(O)cc(O[C@@H]3O[C@H](CO)[C@@H](O)[C@H](O)[C@H]3O)c2)cc1O	1.01
C[C@H](COc1ccccc1)N[C@H](C)[C@H](O)c1ccc(O)cc1	0.995
CC(=O)O[C@H]1CC[C@@]2(C)C(=CCC3C2CC[C@@]2(C)C3CC[C@@H]2C(C)CCCC(C)C)C1 (some centres not stated)	1.01
CN(Cc1cc(Br)cc(Br)c1N)C1CCCCC1	1.01
CN1CCc2cccc3c2C1Cc1ccc(O)c(O)c1-3 (configuration not stated)	1.01
CCN(CC)CCOC(=O)C(Cc1cccc2ccccc12)CC1CCCO1 (configuration not stated)	1
O=C(CCN1CCOCC1)c1ccc2c(c1)OCCO2	0.982
O=S(=O)(c1cc(Br)c(Br)s1)N1CCCCC1	0.993
Oc1cc(O)cc(/C=C/c2ccccc2)c1	1
NC(=O)CCSCCC(N)=O	0.995
Nc1c(Br)cc(Br)cc1CNC1CCC(O)CC1 (configuration not stated)	1.01
CCn1cc(C(=O)O)c(=O)c2cnc(N3CCCC3)nc21	1.01
O=c1cccc2n1C[C@H]1CNCC2C1	1
COc1ccc(OC)c(S(=O)(=O)NCc2c(F)cccc2Cl)c1	1.01
CC(COc1ccccc1)N(CCCl)Cc1ccccc1 (configuration not stated)	1
COc1ccccc1-c1cc(=O)c2cccc(OC)c2o1	0.972
CCn1cc(C(=O)O)c(=O)c2cnc(N3CCNCC3)nc21	0.98
CC12CCCC(O)(C1)C1CC(C)(C)C1CC2 (configuration not stated)	1
N/C(=N\OC(=O)c1ccno1)c1ccc(C(F)(F)F)cc1	0.992
CC(=O)N[C@@H]1[C@@H](C(O)[C@H](O)CO)O[C@](O)(C(=O)O)C[C@@H]1O (some centres not stated)	1
COS(C)(=O)=O	1.01
CC12CCC3C(CC=C4CC(O)CCC43C)C1CCC2=O (configuration not stated)	1.02
O=C(O)P(=O)(O)O	0.996
CC(=O)OC/C=C(C)/C=C/C=C(C)/C=C/C1=C(C)CCCC1(C)C	1.02
CCOC(N)=O	0.999
ON(Cc1c(F)cccc1Cl)Cc1c(F)cccc1Cl	1.01
C/C=C/c1ccc(OC)cc1	1.01
CC12CCC(CC1)C(C)(C)O2	1
CC(Cc1ccc(O)c(O)c1)(NN)C(=O)O (configuration not stated)	1
CC(=O)O[C@H]1CC[C@@]2(C)C(=CCC3C2CC[C@]2(C)C(=O)CCC32)C1 (some centres not stated)	1
CCOC(=O)c1ccc(N)cc1	0.999
CC/C(=N/Oc1ccc(C(F)(F)F)cn1)c1ccc(-c2ccccc2F)cc1	1.01
O=C(O)CCS(=O)(=O)/C=C/c1ccccc1	0.989
COc1ccc(/C=C/c2cc(O)cc(O)c2)cc1	0.978
COC(=O)c1ccc(C(=O)OC)nc1	0.994
COc1ccccc1-c1cc(=O)c2c(OC)cccc2o1	0.973
NCCCCN=C(N)N	0.996
CCC(CCC(C)C1CCC2C3CC=C4C[C@@H](OC(C)=O)CC[C@]4(C)C3CC[C@]12C)C(C)C (some centres not stated)	0.99
Cc1cccc2nc(-c3ccccc3)oc(=O)c12	0.975
O=c1[nH]c(-c2cc(Br)cs2)nc2ccc(Cl)cc12	1.01
CC1(C)CC2C1CCC1(C)OC1CCC2(C)O (configuration not stated)	1
CCOC(=O)c1c(C)csc1N	0.999
